// data source = paper PMC5540273

- Tested on: ASK2;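 also: KINOMEscan kinase panel screen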
- Construct: gene MAP3K6
- Particulars: concentration: 1 μM, replicates: in singlicate; n = 1
Property measured: %Inh

>>> print(df.to_string())
                                   compound  system_under_test  value
0  COc1cc2c(Nc3cccc(NC(=O)c4ccccc4)c3)ncnc2cc1OCCCN1CCOCC1               ASK2     3%
1  COC(=O)c1cccc(NC(=O)NCCNc2ccnc(Nc3ccc(F)cc3)n2)c1               ASK2     0%
2  Nc1nc(-c2ccc3c(N)n[nH]c3c2)cc(N2CCCCC2)n1               ASK2     9%
3    Oc1ccc2ncnc(Nc3ccc(OCc4ccccc4)cc3)c2c1               ASK2     7%
4  Nc1nc(-c2ccc3c(N)n[nH]c3c2)cc(N2CCC[C@@H](C(=O)Nc3ccccc3)C2)n1.O=C(O)C(F)(F)F.O=C(O)C(F)(F)F               ASK2     0%
5  Cn1ccc2ncnc(Nc3ccc(Oc4cccc(Cl)c4)c(Cl)c3)c21               ASK2    11%
6  COc1ccc(Nc2nccc(N3CCC(NC(=O)c4cccc(NC(C)=O)c4)C3)n2)cc1 (centres unmarked)               ASK2     1%
7  CCCc1ccc(S(=O)(=O)NC2CCN(c3ccnc(Nc4ccc(OC)cc4)n3)C2)cc1 (centres unmarked)               ASK2     0%
